Molecular target: Dual specificity protein kinase TTK (Homo sapiens)
Sequence (whole entry): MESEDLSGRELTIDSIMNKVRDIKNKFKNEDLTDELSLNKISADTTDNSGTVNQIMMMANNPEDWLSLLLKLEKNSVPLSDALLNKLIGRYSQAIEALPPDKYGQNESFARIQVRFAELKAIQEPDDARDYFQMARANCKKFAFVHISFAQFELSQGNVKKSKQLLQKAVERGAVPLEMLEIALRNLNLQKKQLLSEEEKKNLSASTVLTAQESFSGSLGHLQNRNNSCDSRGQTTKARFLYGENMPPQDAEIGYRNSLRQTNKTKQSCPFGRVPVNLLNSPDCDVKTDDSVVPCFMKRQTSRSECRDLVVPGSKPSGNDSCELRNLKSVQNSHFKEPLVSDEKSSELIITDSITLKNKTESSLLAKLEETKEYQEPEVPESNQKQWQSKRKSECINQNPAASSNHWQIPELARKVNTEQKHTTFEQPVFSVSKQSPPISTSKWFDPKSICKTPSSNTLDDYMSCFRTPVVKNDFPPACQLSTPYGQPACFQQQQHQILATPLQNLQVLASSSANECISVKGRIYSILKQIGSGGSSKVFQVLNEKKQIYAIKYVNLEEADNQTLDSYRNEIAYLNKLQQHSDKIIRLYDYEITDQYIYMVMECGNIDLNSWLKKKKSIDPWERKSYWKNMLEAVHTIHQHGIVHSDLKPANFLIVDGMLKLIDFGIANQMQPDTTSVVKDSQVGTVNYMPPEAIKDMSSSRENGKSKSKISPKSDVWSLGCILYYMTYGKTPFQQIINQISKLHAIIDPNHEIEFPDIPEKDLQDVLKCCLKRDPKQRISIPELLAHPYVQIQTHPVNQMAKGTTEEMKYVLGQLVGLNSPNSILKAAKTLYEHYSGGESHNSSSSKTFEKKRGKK
Details: at 0.1 µM
Description: GSK_PKIS: TTK mean inhibition at 0.1 uM [Nanosyn]
Recorded inhibition for the following compounds
Endpoint name: inhibition (%)

{"Compound": "COc1ccc(-c2ccc3c(NC(=O)C4CC4)n[nH]c3n2)cc1", "Reported result": 5.12}
{"Compound": "CCc1nccc2c1nc(-c1nonc1N)n2CC", "Reported result": 3.28}
{"Compound": "O=C(NCC1CC1)c1ccc(-c2cccc(C(=O)NC3CC3)c2)cc1", "Reported result": 2.34}
{"Compound": "COc1cc(Nc2ncc3c(C)nc(-c4cccc(Oc5ccccc5)c4)n3n2)cc(OC)c1OC", "Reported result": 3.03}
{"Compound": "COc1ccc2cc(-c3c(-c4ccncc4)nc(-c4ccc([S+](C)[O-])cc4C)n3C)ccc2c1 (centres undefined)", "Reported result": -1.41}
{"Compound": "Fc1ccc(-c2ncn(C3CCNCC3)c2-c2ccnc(Oc3ccc4c(c3)OCO4)n2)cc1", "Reported result": 7.25}
{"Compound": "C[C@@H](Oc1cc(-n2cnc3ccc(OCC4CCN(C)CC4)cc32)sc1C(N)=O)c1ccccc1Cl", "Reported result": 93.6}
{"Compound": "CS(=O)(=O)CCNCc1ccc(-c2ccc3ncnc(Nc4ccc(OCc5ccccc5)c(Br)c4)c3c2)o1", "Reported result": 11.1}
{"Compound": "Nc1nccc(-c2c(-c3ccc(F)cc3)ncn2C2CCC(O)CC2)n1 (centres undefined)", "Reported result": -4.27}
